Record form. Attribute: IC50. Fill in for each entry.
Tested on: Saccharomyces cerevisiae lifespan shortening, growth inhibition
testSummary: yeast lifespan shortening compounds, dose response (AID 849);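 note: yeast growth read as optical density after two days at 30 degrees C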
Active and inactive are the calls of the source. The rule behind the calls is not given here.

Problem: Value lookup for IC50; key = `O=C1C(=C2CCCCC2)SC(=S)N1Cc1ccco1`
Solution: > 100 µM (inactive)

Problem: Which value of IC50 has been reported for `O=c1cc(-c2ccccc2)[nH]n1-c1nc2ccccc2[nH]1` in the records?
Solution: 12.2 µM

Problem: Quick one: IC50 of `CCCc1ccc(OCC(=O)NNC(=S)NC(=O)c2ccco2)cc1` ?
Solution: 15.1 µM

Problem: Any idea what IC50 was measured for `CCOC(=O)c1ccc(-n2[nH]c(-c3ccccc3)cc2=O)cc1` ?
Solution: 17.1 µM

Problem: Reported IC50, molecule `CN(C)c1ccc(/C=C/c2ccc3ccccc3[n+]2C)cc1` : ____
Solution: 26.4 µM

Problem: I would be grateful if you could share the reported IC50 for `O=C(CSCc1ccco1)Nc1cc(C(F)(F)F)ccc1N1CCOCC1` .
Solution: > 100 µM (inactive)
